Where do these numbers come from? They come from ChEMBL document CHEMBL1275576.

Below is a list of entries, each paired with its recorded MIC value.
# Tested on: Fusobacterium varium
# protocol notes: Antimicrobial activity against Fusobacterium varium ATCC 8501 by agar dilution method in presence of 5% laked sheep blood
# Assay type: functional
measured quantity: MIC (µg/mL)

                               query_smiles          assay_target      u  result
0  C[C@@H](O)[C@H]1C(=O)N2C(C(=O)O)=C(S[C@@H]3CN[C@H](C(=O)N(C)C)C3)[C@H](C)[C@H]12  Fusobacterium varium  µg/mL    0.25
1                 Cc1ncc([N+](=O)[O-])n1CCO  Fusobacterium varium  µg/mL    0.25
2  C[C@@H](O)[C@H]1C(=O)N2C(C(=O)O)=C(S[C@@H]3CN[C@H](CNS(N)(=O)=O)C3)[C@H](C)[C@H]12  Fusobacterium varium  µg/mL     0.5
3  CC(=N)N1CC[C@H](SC2=C(C(=O)O)N3C(=O)[C@H]([C@@H](C)O)[C@H]3C2)C1  Fusobacterium varium  µg/mL       4
4  CCC[C@@H]1C[C@@H](C(=O)N[C@@H]([C@H]2O[C@H](SC)[C@H](O)[C@@H](O)[C@H]2O)[C@H](C)Cl)N(C)C1  Fusobacterium varium  µg/mL       4
5  C[C@@H](O)[C@H]1C(=O)N2C(C(=O)O)=C(S[C@H]3C[C@@H](C(=O)N4CC[C@H](NC(=O)CNC(=N)N)C4)N(C)C3)[C@H](C)[C@H]12  Fusobacterium varium  µg/mL     0.5

* * *

# Tested on: Peptostreptococcus anaerobius
# protocol notes: Antimicrobial activity against Peptostreptococcus anaerobius by agar dilution method in presence of 5% laked sheep blood
# Type: functional
measured quantity: MIC90 (µg/mL)

>>> df
                                   molecule      u  result
0  CC(=N)N1CC[C@H](SC2=C(C(=O)O)N3C(=O)[C@H]([C@@H](C)O)[C@H]3C2)C1  µg/mL       1
1  Cc1ncc([N+](=O)[O-])n1CCO [METRONIDAZOLE]  µg/mL     0.5
2  C[C@@H](O)[C@H]1C(=O)N2C(C(=O)O)=C(S[C@H]3C[C@@H](C(=O)N4CC[C@H](NC(=O)CNC(=N)N)C4)N(C)C3)[C@H](C)[C@H]12 [TOMOPENEM]  µg/mL       4
3  C[C@@H](O)[C@H]1C(=O)N2C(C(=O)O)=C(S[C@@H]3CN[C@H](CNS(N)(=O)=O)C3)[C@H](C)[C@H]12 [DORIPENEM]  µg/mL       2
4  C[C@@H](O)[C@H]1C(=O)N2C(C(=O)O)=C(S[C@@H]3CN[C@H](C(=O)N(C)C)C3)[C@H](C)[C@H]12 [MEROPENEM]  µg/mL       2

* * *

# protocol notes: Antimicrobial activity against Veillonella dispar ATCC 17748 by agar dilution method in presence of 5% laked sheep blood
# Type: functional
Below is a list of entries, each paired with its recorded MIC value.
measured quantity: MIC (µg/mL)

In [3]: df
Out[3]:
                                   compound  result_operator  result
0  C[C@@H](O)[C@H]1C(=O)N2C(C(=O)O)=C(S[C@@H]3CN[C@H](CNS(N)(=O)=O)C3)[C@H](C)[C@H]12 [DORIPENEM]                =    0.06
1  CC(=N)N1CC[C@H](SC2=C(C(=O)O)N3C(=O)[C@H]([C@@H](C)O)[C@H]3C2)C1                =    0.06
2  C[C@@H](O)[C@H]1C(=O)N2C(C(=O)O)=C(S[C@H]3C[C@@H](C(=O)N4CC[C@H](NC(=O)CNC(=N)N)C4)N(C)C3)[C@H](C)[C@H]12 [TOMOPENEM]                =    0.03
3  Cc1ncc([N+](=O)[O-])n1CCO [METRONIDAZOLE]                =       2
4  CCC[C@@H]1C[C@@H](C(=O)N[C@@H]([C@H]2O[C@H](SC)[C@H](O)[C@@H](O)[C@H]2O)[C@H](C)Cl)N(C)C1 [CLINDAMYCIN]                ≤    0.03
5  C[C@@H](O)[C@H]1C(=O)N2C(C(=O)O)=C(S[C@@H]3CN[C@H](C(=O)N(C)C)C3)[C@H](C)[C@H]12 [MEROPENEM]                =    0.03

* * *

# Tested on: Thomasclavelia ramosa
# protocol notes: Antimicrobial activity against Clostridium ramosum ATCC 25582 by agar dilution method in presence of 5% laked sheep blood
# Format: functional
measured quantity: log10 MIC (log10 of the value in µg/mL)

In [3]: df
Out[3]:
                                   compound           assay_target  result
0  C[C@@H](O)[C@H]1C(=O)N2C(C(=O)O)=C(S[C@@H]3CN[C@H](C(=O)N(C)C)C3)[C@H](C)[C@H]12 [MEROPENEM]  Thomasclavelia ramosa    0.00
1  C[C@@H](O)[C@H]1C(=O)N2C(C(=O)O)=C(S[C@@H]3CN[C@H](CNS(N)(=O)=O)C3)[C@H](C)[C@H]12 [DORIPENEM]  Thomasclavelia ramosa    0.00
2  C[C@@H](O)[C@H]1C(=O)N2C(C(=O)O)=C(S[C@H]3C[C@@H](C(=O)N4CC[C@H](NC(=O)CNC(=N)N)C4)N(C)C3)[C@H](C)[C@H]12 [TOMOPENEM]  Thomasclavelia ramosa   -0.30
3  Cc1ncc([N+](=O)[O-])n1CCO [METRONIDAZOLE]  Thomasclavelia ramosa    0.30
4  CCC[C@@H]1C[C@@H](C(=O)N[C@@H]([C@H]2O[C@H](SC)[C@H](O)[C@@H](O)[C@H]2O)[C@H](C)Cl)N(C)C1 [CLINDAMYCIN]  Thomasclavelia ramosa    0.90
5  CC(=N)N1CC[C@H](SC2=C(C(=O)O)N3C(=O)[C@H]([C@@H](C)O)[C@H]3C2)C1  Thomasclavelia ramosa   -0.60

* * *

# System: Peptoniphilus asaccharolyticus
# protocol notes: Antimicrobial activity against Peptoniphilus asaccharolyticus by agar dilution method in presence of 5% laked sheep blood
# Type: functional
measured quantity: MIC50

                               query_smiles  measured_quantity         result
0  C[C@@H](O)[C@H]1C(=O)N2C(C(=O)O)=C(S[C@H]3C[C@@H](C(=O)N4CC[C@H](NC(=O)CNC(=N)N)C4)N(C)C3)[C@H](C)[C@H]12              MIC50  ≤ 0.015 µg/mL
1  C[C@@H](O)[C@H]1C(=O)N2C(C(=O)O)=C(S[C@@H]3CN[C@H](C(=O)N(C)C)C3)[C@H](C)[C@H]12              MIC50  ≤ 0.015 µg/mL
2  C[C@@H](O)[C@H]1C(=O)N2C(C(=O)O)=C(S[C@@H]3CN[C@H](CNS(N)(=O)=O)C3)[C@H](C)[C@H]12              MIC50  ≤ 0.015 µg/mL
